# test: Cycloheximide Counterscreen for Small Molecule Inhibitors of Shiga Toxin; further: read at 38.3 µM for the half of the compounds with a filed dose
# conditionDescription: cell reporter, cycloheximide protein synthesis inhibition counterscreen
Among all 300,000 compounds or so, about 37,000 (12%) were called active. No stated cut-off is given here; in the data, active means max response mostly above about 13% (no sharp cut-off); inactive means mostly below about 14%. This excerpt belongs to a sample that is enriched for actives.
Outcome codes: 1 (yes) (active), 0 (no) (inactive)

{"itemSmiles": "CCO[C@H]1OC(C(=O)NCc2ccccc2)=C[C@@H](c2coc3ccccc3c2=O)[C@@H]1CCCO", "assignedCategory": "0 (no)"}
{"itemSmiles": "COCCn1c(SCC(=O)c2[nH]c(C)c(C(C)=O)c2C)nc2ccccc2c1=O", "assignedCategory": "0 (no)"}
{"itemSmiles": "O=S(=O)(Nc1ccc2[nH]ncc2c1)c1ccccc1Cl", "assignedCategory": "0 (no)"}
{"itemSmiles": "O=C(CN1C(=O)/C(=C\\c2ccccc2F)SC1=S)Nc1nc2ccccc2s1", "assignedCategory": "1 (yes)"}
{"itemSmiles": "COc1cc2c(cc1/C=C1/NC(=O)N(c3ccccc3)C1=O)OCO2", "assignedCategory": "0 (no)"}
{"itemSmiles": "CN=c1scc(-c2cc(OC)ccc2OC)n1/N=C/c1c(C)[nH]c2ccccc12", "assignedCategory": "1 (yes)"}
{"itemSmiles": "O=C1N/C(=C/c2cccn2-c2ccccc2)C(=O)N1c1cccc(Cl)c1", "assignedCategory": "1 (yes)"}
{"itemSmiles": "COc1ccc(C)cc1Nc1nc(-c2c(C)[nH]c3ccccc23)cs1", "assignedCategory": "0 (no)"}
{"itemSmiles": "O=C(CN1C(=O)/C(=C/c2ccccc2F)Sc2ccccc21)NCc1cccnc1", "assignedCategory": "0 (no)"}
{"itemSmiles": "COc1ccc(CCNC2=C(Cl)C(=O)N(Cc3ccccc3)C2=O)cc1OC", "assignedCategory": "0 (no)"}
